Measured EC50, listed per entry.
Target: Tn-glycosylated MUC4 on cells (MUC4-Tn; COSMC-KO cells, cancer tissue) (UniProt Q99102)
Assay: flow cytometry on T3M4 COSMC-KO (T3M4-M) cells
Express it in µg/mL; write the number only.

Consider the following illustrative entries.
binder="2D5-HV1-69-C/KV2B (antibody, V domains shown) VH: QVQLVQSGAEVKKPGSSVKVSCKASGYTFSDHAIHWVRQAPGQGLEWLGYISPGNADINYAQKFQGRVTITADKSTSTAYMELSSLRSEDTAVYYCKRSMANSFDYWGQGTLVTVSS VL: DIVMTQTPLSLPVTPGEPASISCRSSQSVLYSSDEKTYLAWYLQKPGQSPQLLIYWASTRESGVPDRFSGSGSGTDFTLKISRVEAEDVGVYYCHQYLSSYTFGQGTKLEIK" unit_spec=µg/mL measured_number=0.0194
binder="2D5-HV1-69-B/KV2B (antibody, V domains shown) VH: QVQLVQSGAEVKKPGSSVKVSCKASGYTFTDHAIHWVRQAPGQGLEWLGYISPGNDDIQYNQKFKGRVTITADKSTSTAYMELSSLRSEDTAVYYCKRSMANSFDYWGQGTLVTVSS VL: DIVMTQTPLSLPVTPGEPASISCRSSQSVLYSSDEKTYLAWYLQKPGQSPQLLIYWASTRESGVPDRFSGSGSGTDFTLKISRVEAEDVGVYYCHQYLSSYTFGQGTKLEIK" unit_spec=µg/mL measured_number=0.0248
binder="2D5-HV1-3B/KV2B (antibody, V domains shown) VH: QVQLVQSGAEVKKPGASVKVSCKASGYTFTDHAIHWVRQAPGQRLEWLGYISPGNDDIQYSQKFKGRVTITADKSASTAYMELSSLRSEDTAVYYCKRSMANSFDYWGQGTLVTVSS VL: DIVMTQTPLSLPVTPGEPASISCRSSQSVLYSSDEKTYLAWYLQKPGQSPQLLIYWASTRESGVPDRFSGSGSGTDFTLKISRVEAEDVGVYYCHQYLSSYTFGQGTKLEIK" unit_spec=µg/mL measured_number=0.0163

Challenge: Report EC50 for 2D5-HV1-69-A/KV2A (antibody, V domains shown) VH: QVQLVQSGAEVKKPGSSVKVSCKASGYTFTDHAIHWVRQAPGQGLEWLGYISPGNDDIQYNAKFKGRATLTADKSTSTAYMELSSLRSEDTAVYFCKRSMANSFDYWGQGTLVTVSS VL: DIVLTQTPLSLPVTPGEPASISCKSSQSVLYSSDQKNYLAWYLQKPGQSPQLLIYWASTRESGVPDRFSGSGSGTDFTLKISRVEAEDVGVYYCHQYLSSYTFGQGTKLEIK please.
Response given: 0.0179
